# Tested On: NAD-dependent protein deacetylase sirtuin-1 (Homo sapiens, UniProt Q96EB6)
# Sequence (Q96EB6 whole entry): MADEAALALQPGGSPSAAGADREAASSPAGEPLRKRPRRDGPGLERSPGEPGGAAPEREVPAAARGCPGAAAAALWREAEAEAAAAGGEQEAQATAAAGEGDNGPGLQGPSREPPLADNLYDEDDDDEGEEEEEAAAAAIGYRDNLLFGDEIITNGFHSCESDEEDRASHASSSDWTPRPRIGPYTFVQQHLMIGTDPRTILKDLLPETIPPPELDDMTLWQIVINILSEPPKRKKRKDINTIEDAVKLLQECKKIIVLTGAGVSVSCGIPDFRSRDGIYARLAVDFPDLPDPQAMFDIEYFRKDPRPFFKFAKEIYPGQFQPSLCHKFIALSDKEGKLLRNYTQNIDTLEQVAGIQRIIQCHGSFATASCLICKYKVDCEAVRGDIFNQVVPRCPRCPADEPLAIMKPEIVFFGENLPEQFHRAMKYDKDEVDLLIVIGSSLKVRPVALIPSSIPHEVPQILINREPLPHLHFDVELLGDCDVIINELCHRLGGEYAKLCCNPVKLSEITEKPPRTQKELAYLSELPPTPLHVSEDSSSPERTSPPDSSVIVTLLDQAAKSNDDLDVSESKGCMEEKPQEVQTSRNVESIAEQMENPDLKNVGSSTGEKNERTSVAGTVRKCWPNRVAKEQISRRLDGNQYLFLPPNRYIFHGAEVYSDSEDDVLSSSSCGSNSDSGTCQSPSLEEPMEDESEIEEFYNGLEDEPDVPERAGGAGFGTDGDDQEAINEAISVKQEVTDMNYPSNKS
# Protocol Description: Inhibition of human SIRT1 using biotinylated peptide with an acetylated FLAG sequence as substrate measured after 3 hr in presence of NAD+ by TR-FRET assay
Quantity: pIC50
Kindly note that pIC50 refers to -log10 of the concentration in mol/L and answer with the value alone.

## Input Reported pIC50 for Cc1ccc(-c2nc3c(=O)n(C)c(=O)nc-3n(C)n2)cc1 : what is it?
## Output 6.96

## Input What about CCCCc1nc2c(=O)n(C)c(=O)nc-2n(C)n1 ?
## Output 6.96

## Input What about Cn1ncnc2c(=O)n(C)c(=O)nc1-2 ?
## Output 6.06
